# ASSAYED_SYSTEM: human ether-à-go-go-related gene (hERG) potassium channel (human);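 note: peak tail current of the secondary pulse compared with the same well before compound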
# Sequence (Q12809 whole entry, looked up): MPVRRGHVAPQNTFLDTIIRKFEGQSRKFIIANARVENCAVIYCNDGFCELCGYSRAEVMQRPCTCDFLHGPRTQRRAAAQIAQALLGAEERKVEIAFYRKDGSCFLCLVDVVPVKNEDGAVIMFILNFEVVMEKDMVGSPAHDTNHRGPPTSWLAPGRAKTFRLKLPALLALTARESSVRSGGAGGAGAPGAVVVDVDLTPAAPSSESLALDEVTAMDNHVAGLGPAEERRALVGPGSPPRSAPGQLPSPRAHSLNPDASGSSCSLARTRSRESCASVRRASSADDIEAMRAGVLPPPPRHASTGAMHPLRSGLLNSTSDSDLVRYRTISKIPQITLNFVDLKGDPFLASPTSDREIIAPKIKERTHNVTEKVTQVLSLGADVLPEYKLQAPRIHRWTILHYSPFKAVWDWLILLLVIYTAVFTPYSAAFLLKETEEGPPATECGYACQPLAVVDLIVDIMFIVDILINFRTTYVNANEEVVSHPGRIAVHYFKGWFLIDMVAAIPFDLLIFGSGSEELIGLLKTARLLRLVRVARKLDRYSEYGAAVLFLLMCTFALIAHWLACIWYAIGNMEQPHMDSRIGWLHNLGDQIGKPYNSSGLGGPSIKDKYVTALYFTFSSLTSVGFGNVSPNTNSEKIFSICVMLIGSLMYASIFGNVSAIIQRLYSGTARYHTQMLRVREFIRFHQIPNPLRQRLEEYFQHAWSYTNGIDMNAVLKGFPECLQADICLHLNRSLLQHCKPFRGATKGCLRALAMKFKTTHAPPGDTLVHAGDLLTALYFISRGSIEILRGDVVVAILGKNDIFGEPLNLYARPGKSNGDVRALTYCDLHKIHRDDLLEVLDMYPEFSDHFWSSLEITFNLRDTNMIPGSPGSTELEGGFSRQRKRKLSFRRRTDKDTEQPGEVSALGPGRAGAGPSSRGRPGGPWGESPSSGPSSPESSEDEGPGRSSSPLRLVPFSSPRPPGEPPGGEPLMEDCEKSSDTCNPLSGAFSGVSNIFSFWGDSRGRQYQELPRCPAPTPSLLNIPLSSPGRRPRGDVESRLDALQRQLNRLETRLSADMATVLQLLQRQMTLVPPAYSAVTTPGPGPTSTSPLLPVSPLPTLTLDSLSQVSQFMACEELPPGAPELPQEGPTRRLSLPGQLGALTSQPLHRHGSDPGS
# METHOD: primary screen, population patch clamp on CHO cells stably expressing hERG; higher = less effect of the substance
Hit rate of the full screen: of about 310,000 compounds, about 14,000 (4.5%) showed an effect of 50% or more. The effect is printed as a negative number. What follows is part of a selection rich in strong results, with near analogues and random picks from the rest.
MEASURED_ATTRIBUTE: hERG current change (%, negative = inhibition) at 10uM (%)

{"COMPOUND": "Cc1ccc(S(=O)(=O)c2cnc(-c3ccccc3)nc2N2CCCCC2)cc1", "ASSAYED_SYSTEM": "human ether-à-go-go-related gene (hERG) potassium channel (human)", "MEAS_VALUE": 25.7}
{"COMPOUND": "COc1ccc(CC(=O)Nc2cc(C)ccc2O)cc1OC", "ASSAYED_SYSTEM": "human ether-à-go-go-related gene (hERG) potassium channel (human)", "MEAS_VALUE": 4.22}
{"COMPOUND": "Cc1cc(C)c2c(-n3cccc3)c(C(=O)NNS(=O)(=O)c3ccc(Cl)cc3)sc2n1", "ASSAYED_SYSTEM": "human ether-à-go-go-related gene (hERG) potassium channel (human)", "MEAS_VALUE": 0.175}
{"COMPOUND": "Cc1cc(C(F)F)n2ncc(C(=O)NCCc3ccccc3Cl)c2n1", "ASSAYED_SYSTEM": "human ether-à-go-go-related gene (hERG) potassium channel (human)", "MEAS_VALUE": -56.7}
{"COMPOUND": "Cc1ccc(S(=O)(=O)N2[C@@H](c3cccc(Cl)c3)C(C(=O)O)=CC[C@H]2c2cccs2)cc1", "ASSAYED_SYSTEM": "human ether-à-go-go-related gene (hERG) potassium channel (human)", "MEAS_VALUE": 13.7}
{"COMPOUND": "COC(=O)c1cc(CSc2nnc(NC3CCCCC3)s2)oc1C", "ASSAYED_SYSTEM": "human ether-à-go-go-related gene (hERG) potassium channel (human)", "MEAS_VALUE": -10.1}
{"COMPOUND": "COc1ccc(NC(=O)COc2ccc(-c3nn(C)c(=O)c4ccccc34)cc2)cc1", "ASSAYED_SYSTEM": "human ether-à-go-go-related gene (hERG) potassium channel (human)", "MEAS_VALUE": 18.2}
{"COMPOUND": "Cc1c(C(=O)Nc2ccc3c(c2)OCCO3)oc2ccc(Br)cc12", "ASSAYED_SYSTEM": "human ether-à-go-go-related gene (hERG) potassium channel (human)", "MEAS_VALUE": 0.46}
{"COMPOUND": "Cc1cc(C)cc(OCC(=O)NNC(=O)c2ccccn2)c1", "ASSAYED_SYSTEM": "human ether-à-go-go-related gene (hERG) potassium channel (human)", "MEAS_VALUE": -34.6}
{"COMPOUND": "COc1ccc(S(=O)(=O)N2CCCC(C(=O)O)C2)cc1Cl (centres unmarked)", "ASSAYED_SYSTEM": "human ether-à-go-go-related gene (hERG) potassium channel (human)", "MEAS_VALUE": 6.43}
{"COMPOUND": "Cc1cc(C(F)F)n2ncc(C(=O)NCCc3ccc(Cl)cc3)c2n1", "ASSAYED_SYSTEM": "human ether-à-go-go-related gene (hERG) potassium channel (human)", "MEAS_VALUE": -45}
{"COMPOUND": "Cc1cc(Cl)ccc1OCC(=O)NCc1ccncc1", "ASSAYED_SYSTEM": "human ether-à-go-go-related gene (hERG) potassium channel (human)", "MEAS_VALUE": -8.3}
{"COMPOUND": "CC(C)CN(C(=O)COC(=O)C1CC1)c1c(N)n(Cc2ccccc2)c(=O)[nH]c1=O", "ASSAYED_SYSTEM": "human ether-à-go-go-related gene (hERG) potassium channel (human)", "MEAS_VALUE": 13}
{"COMPOUND": "COc1ccccc1NC(CC(=O)c1ccccc1)C(=O)OCC(=O)c1ccc(Br)cc1 (centres unmarked)", "ASSAYED_SYSTEM": "human ether-à-go-go-related gene (hERG) potassium channel (human)", "MEAS_VALUE": -3.81}
{"COMPOUND": "Cc1ccc(C)c(C2=CSC3=NS(=O)(=O)CCN23)c1", "ASSAYED_SYSTEM": "human ether-à-go-go-related gene (hERG) potassium channel (human)", "MEAS_VALUE": 12.3}
{"COMPOUND": "Cc1ccccc1-c1ccc(/C=C2/SC(N3CCOCC3)=NC2=O)o1", "ASSAYED_SYSTEM": "human ether-à-go-go-related gene (hERG) potassium channel (human)", "MEAS_VALUE": -15.9}
{"COMPOUND": "COc1ccc(C(=O)/C=C/Nc2cc(C)on2)c(OC)c1", "ASSAYED_SYSTEM": "human ether-à-go-go-related gene (hERG) potassium channel (human)", "MEAS_VALUE": -6.33}
{"COMPOUND": "COC(=O)CC1(CC(=O)OC)C(=O)N(c2ccccc2)C(=O)N(c2ccccc2)C1=O", "ASSAYED_SYSTEM": "human ether-à-go-go-related gene (hERG) potassium channel (human)", "MEAS_VALUE": 11.7}
{"COMPOUND": "O=C1N=C(N2CCOCC2)S/C1=C\\C=C/c1ccccc1", "ASSAYED_SYSTEM": "human ether-à-go-go-related gene (hERG) potassium channel (human)", "MEAS_VALUE": -58.2}
{"COMPOUND": "O=C(O)c1ccc(NS(=O)(=O)c2ccc(Cl)cc2)cc1", "ASSAYED_SYSTEM": "human ether-à-go-go-related gene (hERG) potassium channel (human)", "MEAS_VALUE": 0.513}
